# testedOn: Apoptosis regulator Bcl-2/Bcl-2 homologous antagonist/killer (Homo sapiens)
# Sequence (P10415 whole entry): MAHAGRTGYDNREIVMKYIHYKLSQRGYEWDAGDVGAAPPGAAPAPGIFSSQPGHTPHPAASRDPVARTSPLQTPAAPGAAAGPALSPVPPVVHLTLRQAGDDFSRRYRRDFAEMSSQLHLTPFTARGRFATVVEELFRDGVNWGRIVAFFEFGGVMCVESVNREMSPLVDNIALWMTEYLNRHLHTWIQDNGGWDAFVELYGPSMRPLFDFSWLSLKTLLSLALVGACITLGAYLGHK
# Sequence (Q16611 whole entry, further chain): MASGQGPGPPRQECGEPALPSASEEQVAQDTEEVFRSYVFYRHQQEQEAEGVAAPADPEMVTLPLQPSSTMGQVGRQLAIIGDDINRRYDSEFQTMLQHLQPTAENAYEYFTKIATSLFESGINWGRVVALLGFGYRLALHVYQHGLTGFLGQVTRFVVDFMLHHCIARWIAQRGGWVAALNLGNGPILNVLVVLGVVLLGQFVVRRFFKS
# assayDetails: Inhibition of Bcl2-BAK interaction after 1 hr by surface plasmon resonance assay
Recorded EC50, one value per entry.
Kindly provide the numeric value in nM only, without the unit symbol.

Consider the following illustrative entries.
1) CC(C)(C)C(=O)NC12CC3CC(CC(CS(=O)(=O)NC(=O)c4ccc(N5CCN(Cc6ccccc6-c6ccc(Cl)cc6)CC5)cc4)(C3)C1)C2: 520
2) O=C(NS(=O)(=O)CC12CC3CC(CC(O)(C3)C1)C2)c1ccc(N2CCN(Cc3ccccc3-c3ccc(Cl)cc3)CC2)cc1: 300

EC50 for CC(=O)NC12CC3CC(CC(CS(=O)(=O)NC(=O)c4ccc(N5CCN(Cc6ccccc6-c6ccc(Cl)cc6)CC5)cc4)(C3)C1)C2 is 230
